FYI, the data here is from patent US20250130239A1.

Test system: MV-4-11 cells
Assay: CellTiter-Glo cell viability assay, MV-4-11
Assay type: cell-based, human
Conditions: 24 h
Quantity Name: EC50

-- ask Entry under review: `Cc1ncsc1-c1ccc(CNC(=O)[C@@H]2C[C@@H](O)CN2C(=O)[C@@H](NC(=O)COCCOCCOCCNC(=O)C[C@@H]2N=C(c3ccc(Cl)cc3)c3c(sc(C)c3C)-n3c(C)nnc32)C(C)(C)C)cc1` . Reported EC50?
-- reply ~20 nM
